- ASSAY_INFO: Regional dosing study in rat (pharmacokinetics)
- Assay type: in vivo
- REPORTED_CONDITIONS: male, Sprague-Dawley, in vivo, 10 mg/kg, jejunum
Structures can show the parent of a compound that is named as a salt.
EXPERIMENTAL_ENDPOINT: AUC (ng·h/mL)
Numbers only here, please. The scale is ng·h/mL.

Task: Name the recorded AUC for COc1ccc(CC(=O)O)cc1Oc1ccc(NC(=O)C(C)(C)C)cc1CSC(C)(C)C [Compound 2, sodium salt] .
Output: 8110

----------
- ASSAY_INFO: Regional dosing study in rat (pharmacokinetics)
- Type: in vivo
- REPORTED_CONDITIONS: male, Sprague-Dawley, in vivo, 10 mg/kg, duodenum
Counter-ions that a name gives are not always drawn.
EXPERIMENTAL_ENDPOINT: Cmax (ng/mL)
Numbers only here, please. The scale is ng/mL.

Task: Name the recorded Cmax for COc1ccc(CC(=O)O)cc1Oc1ccc(NC(=O)C(C)(C)C)cc1CSC(C)(C)C [Compound 2, sodium salt] .
Output: 4310

----------
- STUDY_SYSTEM: UniProt Q9Y5Y4
- Sequence (Q9Y5Y4 whole entry): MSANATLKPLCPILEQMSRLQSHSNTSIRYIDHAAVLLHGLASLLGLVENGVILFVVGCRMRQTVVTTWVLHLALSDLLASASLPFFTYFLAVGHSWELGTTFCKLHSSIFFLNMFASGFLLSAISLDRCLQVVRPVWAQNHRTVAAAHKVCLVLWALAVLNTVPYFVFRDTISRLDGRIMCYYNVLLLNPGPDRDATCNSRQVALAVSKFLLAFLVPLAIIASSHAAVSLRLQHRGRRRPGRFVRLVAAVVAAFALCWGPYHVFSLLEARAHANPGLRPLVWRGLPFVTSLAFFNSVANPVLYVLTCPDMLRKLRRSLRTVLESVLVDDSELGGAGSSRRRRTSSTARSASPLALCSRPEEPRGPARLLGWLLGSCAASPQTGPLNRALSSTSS
- ASSAY_INFO: In vitro DP2/CRTH2 radioligand ([3H]PGD2) membrane binding assay
- REPORTED_CONDITIONS: in the presence of 0.5% serum albumin; read-out: IC50, binding to DP2
EXPERIMENTAL_ENDPOINT: IC50 (nM)
Numbers only here, please. The scale is nM.

Task: Item: COc1ccc(CC(=O)O)cc1Oc1ccc(NC(=O)C(C)(C)C)cc1CSC(C)(C)C Test system: UniProt Q9Y5Y4 Read-out: IC50 Value: ?
Output: 19.7

----------
- Tested on: DK-PGD2-induced peripheral blood leukocyte influx
- ASSAY_INFO: Guinea pig IV DK-PGD2-induced peripheral blood leukocyte influx
- Assay type: in vivo
- REPORTED_CONDITIONS: Cavia porcellus, Leukocyte, iv; 18 hr study, plasma concentration, calculated; read-out: 18-hr EC50, inhibition of IV-DK-PGD2-induced leukocyte influx
EXPERIMENTAL_ENDPOINT: EC50 (nM)
Numbers only here, please. The scale is nM.

Task: Name the recorded EC50 for COc1ccc(CC(=O)O)cc1Oc1ccc(NC(=O)C(C)(C)C)cc1CSC(C)(C)C [Compound 1] .
Output: 18

----------
- ASSAY_INFO: Plasma concentrations in guinea pig DK-PGD2 leukocyte influx study
- Format: in vivo
- REPORTED_CONDITIONS: Hartley, 18.5 hours after oral 100 mg/kg, read-out: concentration of Compound 1 in plasma
EXPERIMENTAL_ENDPOINT: concentration at 18.5 h (nM)
Numbers only here, please. The scale is nM.

Task: Name the recorded concentration at 18.5 h for COc1ccc(CC(=O)O)cc1Oc1ccc(NC(=O)C(C)(C)C)cc1CSC(C)(C)C .
Output: 17

----------
- ASSAY_INFO: Phase I single ascending dose study in humans, pharmacokinetics
- Format: in vivo, human
- REPORTED_CONDITIONS: human, plasma; single oral 15 mg capsule, healthy humans, mean; read-out: Vz/F
Counter-ions that a name gives are not always drawn.
EXPERIMENTAL_ENDPOINT: Vd/F (L)
Numbers only here, please. The scale is L.

Task: Name the recorded Vd/F for COc1ccc(CC(=O)O)cc1Oc1ccc(NC(=O)C(C)(C)C)cc1CSC(C)(C)C [Compound 2, sodium salt] .
Output: 1760
